test system: EsNMT; assay: N-alkylation substrate screen using EsNMT (LC-MS); assay type: biochemical, Ephedra sinica; set-up: key: −=no detectable quantities of product N-alkylated compound; Trace, +, ++, +++=increasing relative levels of product N-alkylated compound; Trace, +, ++, +++=increasing relative levels of product N-alkylated compound; Trace, +, ++, +++=increasing relative levels of product N-alkylated compound; Trace, +, ++, +++=increasing relative levels of product N-alkylated compound; details: 25 μg protein, 1 mM substrate, 1 mM SAM, 60 mM HEPES pH 8, 16 hours at 37° C.; relative level of N-alkylated product by LC-MS
PARAMETER_MEASURED: N-alkylation of substrate alkaloid compounds, Enzyme EsNMT

Some molecules with known N-alkylation of substrate alkaloid compounds, Enzyme EsNMT results, for comparison:
MOLECULE	RESULT
Nc1ccccc1C(=O)O	−
N[C@@H](Cc1ccccc1)C(=O)O	−
COc1cc2c(cc1O)C(Cc1ccc(O)cc1)NCC2 (stereo not drawn)	+
CC(N)Cc1ccccc1 (stereo not drawn) [Amphetamine, amphetamine, reference compound]	+
CN[C@@H](C)[C@@H](O)c1ccccc1 [Pseudoephedrine, pseudoephedrine, reference compound]	+

Please supply N-alkylation of substrate alkaloid compounds, Enzyme EsNMT for each of the following items, keeping them in order.
1. c1cc2c(c3c1C[C@H]1c4cc5c(cc4CCN1C3)OCO5)OCO2
2. C[C@H](N)C(=O)c1ccccc1
3. COc1ccc(C[C@H]2c3cc(O)c(OC)cc3CCN2C)cc1O
4. CN1[C@@H]2CC[C@H]1CC(=O)C2

Response given:
1. +
2. +
3. +
4. −
